target: T1, HLA-A*02:01 (human); assay: UV peptide exchange ELISA
T1 construct: monomers captured on streptavidin plates; also called MHC class I
measured-attribute: peptide exchange yield

In [3]: df
Out[3]:
      binder   reported
0  LLQAIKLYL  20 to 50%

# return peptide exchange yield for each item in the list
1. LLADELITV
2. YLFDDPLSAV

Output:
1. 50 to 75%
2. 20 to 50%
